# assayed system: HDAC3 (Homo sapiens (Human))
# experimental details: HDAC enzyme assay, HDAC3
# experimental conditions: read-out: HDAC3 IC50
measurement type: IC50 (nM)

>  <compound>
O=C(NO)c1cnc(NCc2cccc(Cl)c2)nc1 [Compound 34]

>  <assayed system>
HDAC3 (Homo sapiens (Human))

>  <IC50, nM>
34

$$$$
>  <compound>
O=C(NO)c1cnc(NCc2ccc(-c3ccccc3)cc2)nc1 [Compound 107]

>  <assayed system>
HDAC3 (Homo sapiens (Human))

>  <IC50, nM>
19

$$$$
>  <compound>
O=C(NO)c1cnc(NC2(c3cccs3)CCCCC2)nc1 [Compound 154]

>  <assayed system>
HDAC3 (Homo sapiens (Human))

>  <IC50, nM>
3360

$$$$

(P) O=C(NO)c1cnc(NC2(c3ccc(F)c(F)c3)CC2)nc1 [Compound 140]
(Q) O=C(NO)c1cnc(NC2(c3ccccc3)CCC2)nc1 [Compound 130]
Given the listed items, does P or Q have the lesser reported IC50? # answer = label of selected item
P

(I) O=C(NO)c1cnc(NC2(c3ccc(C(F)(F)F)c(F)c3)CC2)nc1 [Compound 137]
(II) O=C(NO)c1cnc(NC2(c3cccc(F)c3F)CC2)nc1 [Compound 143]
In the pair I and II , the larger recorded IC50 belongs to which? # answer = label of selected item
I
(I: 70 nM, II: 29 nM)

* * *

# assayed system: HDAC3 (Homo sapiens (Human), UniProt O15379)
# Sequence (O15379 whole entry): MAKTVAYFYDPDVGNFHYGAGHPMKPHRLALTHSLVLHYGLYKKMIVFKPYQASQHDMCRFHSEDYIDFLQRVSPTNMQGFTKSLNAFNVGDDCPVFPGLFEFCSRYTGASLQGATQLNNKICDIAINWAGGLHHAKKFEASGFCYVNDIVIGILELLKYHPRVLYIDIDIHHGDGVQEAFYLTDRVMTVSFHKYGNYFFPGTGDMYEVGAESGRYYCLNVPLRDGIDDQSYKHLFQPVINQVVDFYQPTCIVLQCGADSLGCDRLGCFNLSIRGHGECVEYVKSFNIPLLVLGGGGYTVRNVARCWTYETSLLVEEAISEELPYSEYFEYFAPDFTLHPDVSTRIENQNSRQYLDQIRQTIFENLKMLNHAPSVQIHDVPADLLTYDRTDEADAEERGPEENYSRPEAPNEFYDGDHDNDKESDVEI
# Sequence (Q9Y618 395-489 partner): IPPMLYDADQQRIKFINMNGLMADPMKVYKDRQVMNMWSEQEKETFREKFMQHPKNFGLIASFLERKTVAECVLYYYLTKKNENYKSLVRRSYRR
# experimental details: HDAC enzyme assay, HDAC3
# experimental conditions: read-out: HDAC3 IC50
measurement type: IC50 (nM)

>  <compound>
O=C(NO)c1cnc(NC2(Cc3ccccc3)CC2)nc1 [Compound 109]

>  <assayed system>
HDAC3 (Homo sapiens (Human), UniProt O15379)

>  <observed value>
843

$$$$
>  <compound>
O=C(NO)c1cnc(NC2(c3cccc(C(F)(F)F)c3)CC2)nc1 [Compound 121]

>  <assayed system>
HDAC3 (Homo sapiens (Human), UniProt O15379)

>  <observed value>
99

$$$$
>  <compound>
O=C(NO)c1cnc(NC2(c3cccc(Cl)c3)CCCC2)nc1 [Compound 153]

>  <assayed system>
HDAC3 (Homo sapiens (Human), UniProt O15379)

>  <observed value>
1260

$$$$
>  <compound>
O=C(NO)c1cnc(Nc2cc(F)cc(C(F)(F)F)c2)nc1 [Compound 26]

>  <assayed system>
HDAC3 (Homo sapiens (Human), UniProt O15379)

>  <observed value>
270

$$$$
>  <compound>
O=C(NO)c1cnc(NC2(c3ccccc3)CCCCC2)nc1 [Compound 84]

>  <assayed system>
HDAC3 (Homo sapiens (Human), UniProt O15379)

>  <observed value>
4520

$$$$
>  <compound>
O=C(NO)c1cnc(NC2(c3ccccc3)CCOCC2)nc1 [Compound 95]

>  <assayed system>
HDAC3 (Homo sapiens (Human), UniProt O15379)

>  <observed value>
2270

$$$$

(1) COc1ccc(C2(Nc3ncc(C(=O)NO)cn3)CCCCC2)cc1 [Compound 122]
(2) O=C(NO)c1cnc(NCc2c(CO)cccc2CO)nc1 [Compound 51]
In the pair 1 and 2 , the larger recorded IC50 belongs to which? # answer = label of selected item
1

(I) O=C(NO)c1cnc(NC2(c3cccc(F)c3)CCCC2)nc1 [Compound 151]
(II) O=C(NO)c1cnc(NCc2c(Cl)cccc2Cl)nc1 [Compound 48]
(III) Cc1cc(Nc2ncc(C(=O)NO)cn2)ccn1 [Compound 31]
(IV) CC(Nc1ncc(C(=O)NO)cn1)(c1ccccc1)c1ccccc1 [Compound 79]
With regard to IC50, arrange the entries in ascending order, please. List labels; respect the requested ordering.
III, II, I, IV

(a) CC(C)(Nc1ncc(C(=O)NO)cn1)c1ccc(Cl)cc1F [Compound 83]
(b) COc1cc(F)ccc1CNc1ncc(C(=O)NO)cn1 [Compound 49]
In the pair a and b , the larger recorded IC50 belongs to which? # answer = label of selected item
a

(a) O=C(NO)c1cnc(Nc2cc(Cl)ccc2Cl)nc1 [Compound 12]
(b) CN(c1ccc(Cl)c(Cl)c1)c1ncc(C(=O)NO)cn1 [Compound 8]
(c) O=C(NO)c1cnc(NC2(c3ccc(F)cc3F)CC2)nc1 [Compound 123]
(d) Cc1cc(F)ccc1C(C)(C)Nc1ncc(C(=O)NO)cn1 [Compound 72]
With regard to IC50, arrange the entries in ascending order, please. List labels; respect the requested ordering.
c, b, a, d

(A) O=C(NO)c1cnc(NC2(c3ccco3)CC2)nc1 [Compound 99]
(B) O=C(NO)c1cnc(NCc2ccccc2Cl)nc1 [Compound 33]
(C) Cc1cccc(C2(Nc3ncc(C(=O)NO)cn3)CC2)c1 [Compound 134]
With regard to IC50, arrange the entries in ascending order, please. List labels; respect the requested ordering.
C, B, A

(I) O=C(NO)c1cnc(NC2(c3cc(Cl)cc(Cl)c3)CC2)nc1 [Compound 146]
(II) O=C(NO)c1cnc(NCc2ccccn2)nc1 [Compound 108]
Given the listed items, does I or II have the lesser reported IC50? # answer = label of selected item
I

(P) O=C(NO)c1cnc(Nc2ccc(Cl)cc2)nc1 [Compound 6]
(Q) Cc1cc(C(C)(C)Nc2ncc(C(=O)NO)cn2)ccc1F [Compound 78]
Given the listed items, does P or Q have the lesser reported IC50? # answer = label of selected item
P

(I) O=C(NO)c1cnc(NC2(c3ccccc3)CCCC2)nc1 [Compound 88]
(II) O=C(NO)c1cnc(NCc2ccc(F)cc2C(F)(F)F)nc1 [Compound 57]
(III) O=C(NO)c1cnc(NCCc2cccc(Cl)c2)nc1 [Compound 42]
With regard to IC50, arrange the entries in ascending order, please. List labels; respect the requested ordering.
III, II, I
